Tested on: Plasmodium falciparum
Assay: GSK_TCMDC: Inhibition of Plasmodium falciparum 3D7 in whole red blood cells, using parasite LDH activity as an index of growth. Test compounds present at 2uM
Type: functional
readout.label: Inhibition (%)
Enter your answer as a number in %; do not include the unit.

Solved entries:
**Q:** Give reported Inhibition value for `CS(=O)(=O)c1ccc(OCCCN(Cc2ccccc2C(F)(F)F)c2ccc(C#N)c(C(F)(F)F)c2)cc1`
**A:** 94

**Q:** Give reported Inhibition value for `O=C(Nc1ccccc1)N(Cc1ccccc1-c1cccc(CNCCc2ccccc2)c1)C1CCN(Cc2ccccc2)CC1.O=C(O)C(F)(F)F`
**A:** 100

**Q:** Give reported Inhibition value for `Cc1cccc2nc(-c3cccc(-c4cccc(CNCCCN5CCCC5=O)c4)c3)[nH]c12.O=C(O)C(F)(F)F`
**A:** 100

**Q:** Give reported Inhibition value for `COC(=O)c1cccc(CNCc2ccc(-c3ccc(-c4nc5cccc(C)c5[nH]4)s3)cc2)c1.O=C(O)C(F)(F)F`
**A:** 100

**Q:** Give reported Inhibition value for CCOc1ccc(C(C)NC(=O)c2ccc(OC)c(Br)c2)cc1OCC (stereo not drawn)
**A:** 100

***
**Q:** Give reported Inhibition value for `COCCN(CCOC)c1ncc(-c2ccsc2)c(-c2nc(C)c(C)s2)n1`
**A:** 96

**Q:** Give reported Inhibition value for Cc1ccc(-c2nnc(Nc3ccc(C(=O)N4CCCCC4)cc3)c3ccccc23)cc1S(=O)(=O)NCC1CCCO1 (stereo not drawn)
**A:** 99

**Q:** Give reported Inhibition value for `COc1ccc(-c2cc3ncn(CC(=O)N4CCN(c5cccc(OC)c5)CC4)c(=O)c3s2)cc1`
**A:** 84

====

System: HepG2
Experiment: GSK_TCMDC: Percent inhibition of human HepG2 cell line. Test compounds present at 10uM.
Type: functional
Inhibition: recorded values
Enter your answer as a number in %; do not include the unit.

**Q:** Give reported Inhibition value for `Cc1[nH]c(C)c(-c2ccc(-c3ccc(Cl)cc3)nc2)c(=O)c1Cl`
**A:** 8

**Q:** Give reported Inhibition value for `CC1CCN(CC[C@H]2CCCN2S(=O)(=O)c2cccc(NC(=O)c3ccc(-c4ccc(Cl)cc4)o3)c2)CC1`
**A:** 45

**Q:** Give reported Inhibition value for `O=C(O)C(F)(F)F.c1ccc(CN2CCC(NCc3ccc(-c4cccc(CNC5CCCC5)c4)cc3)CC2)cc1`
**A:** 55

====

Inhibition: recorded values
Test system: Plasmodium falciparum
Assay: GSK_TCMDC: Inhibition of Plasmodium falciparum Dd2 in whole red blood cells, using parasite LDH activity as an index of growth. Test compounds present at 2uM
Type: functional
Enter your answer as a number in %; do not include the unit.

**Q:** Give reported Inhibition value for COc1ccc(-c2cccc(CNC3CCN(CC4Cn5c(=O)ccc6ccc(F)c4c65)CC3)c2)cc1.O=C(O)C(F)(F)F (stereo not given)
**A:** 74

**Q:** Give reported Inhibition value for `CNc1nc(N/N=C/c2cc3c(cc2[N+](=O)[O-])OCO3)nc(Nc2cccc(C(F)(F)F)c2)n1`
**A:** 60

***
**Q:** Give reported Inhibition value for `O=C(O)C(F)(F)F.Oc1ccc(CCNc2nc(NCCCOc3ccccc3-c3ccncc3)nc(N3CCNCC3)n2)cc1`
**A:** 0

**Q:** Give reported Inhibition value for `Cc1cc(O)c(CN2CCN(Cc3cccs3)CC2)cc1C(C)C`
**A:** 97
